B1: HSP90AB1 (parent)
chain: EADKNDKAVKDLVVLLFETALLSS

# Variants of: B1
# Assay summary: protein stability index of a GFP-peptide fusion (GPS, HEK-293T) (PSI 1-6); higher = more stable;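 also: lentivirally expressed fusions sorted by FACS into six bins by GFP to DsRed ratio, PSI derived from sequencing read proportions per bin multiplied by bin number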
# Measurement parameters: c terminus: a fixed tail appended
Label Condition met when protein stability index is at or above 2; otherwise label Condition not met.

These solved cases illustrate the format of a correct answer.
Variant key	Class
L12R	Condition met
A20S	Condition met
D11W	Condition met
N5W	Condition met
L15W	Condition met

Tell me whether protein stability index is at least 2 here: V13G
Condition met

Another variant: E1T
Condition met

Another variant: L12S
Condition met

Another variant: L22G
Condition met

Another variant: K4R
Condition not met

Another variant: K10G
Condition not met

Another variant: V9H
Condition met

Another variant: D3F
Condition met

Another variant: D6E
Condition not met

Another variant: L21A
Condition met

Another variant: L12T
Condition met

Another variant: L12Q
Condition met

Another variant: A20L
Condition not met
